Hi there, I'd appreciate the recorded MIC for every entry that follows.
Tested on: Staphylococcus aureus
Test: Antimicrobial activity against Staphylococcus aureus NCTC 4163 incubated for 18 hrs by twofold microdilution method
Format: functional
Respond with the figure and its unit, in that order.

Which MIC is reported for this compound? "CC[C@@H](C(=O)[C@@H](C)[C@@H](O)[C@H](C)[C@@H]1O[C@@H]([C@@H](CC)C(=O)OCc2ccccc2)CC[C@@H]1C)[C@H]1O[C@]2(C=C[C@@H](O)[C@]3(CC[C@@](C)([C@H]4CC[C@](O)(CC)[C@H](C)O4)O3)O2)[C@H](C)C[C@@H]1C"
64 µg/mL

Also, "CC[C@@H](C(=O)[C@@H](C)[C@@H](O)[C@H](C)[C@@H]1O[C@@H]([C@@H](CC)C(=O)OCCCCCC[P+](c2ccccc2)(c2ccccc2)c2ccccc2)CC[C@@H]1C)[C@H]1O[C@]2(C=C[C@@H](O)[C@]3(CC[C@@](C)([C@H]4CC[C@](O)(CC)[C@H](C)O4)O3)O2)[C@H](C)C[C@@H]1C.[Br-]" please.
2 µg/mL

Here is the next compound: "CCCC[P+](CCCC)(CCCC)CCCCCCOC(=O)[C@H](CC)[C@H]1CC[C@H](C)[C@H]([C@@H](C)[C@H](O)[C@H](C)C(=O)[C@H](CC)[C@H]2O[C@]3(C=C[C@@H](O)[C@]4(CC[C@@](C)([C@H]5CC[C@](O)(CC)[C@H](C)O5)O4)O3)[C@H](C)C[C@@H]2C)O1.[Br-]"
2 µg/mL

* * *

System: Staphylococcus epidermidis
Experiment: Antimicrobial activity against Staphylococcus epidermidis ATCC 35984 incubated for 18 hrs by twofold microdilution method
Assay type: functional
Record form. Attribute: MIC. Fill in for each entry.
Your answer is read as µg/mL, so omit the unit and give the number.

Suppose we examine the molecule "CC[C@@H](C(=O)[C@@H](C)[C@@H](O)[C@H](C)[C@@H]1O[C@@H]([C@@H](CC)C(=O)OCCCCCC[P+](c2ccc(OC)cc2)(c2ccc(OC)cc2)c2ccc(OC)cc2)CC[C@@H]1C)[C@H]1O[C@]2(C=C[C@@H](O)[C@]3(CC[C@@](C)([C@H]4CC[C@](O)(CC)[C@H](C)O4)O3)O2)[C@H](C)C[C@@H]1C.[Br-]" ; what MIC value has been reported?
8

Can you check "CCCC[P+](CCCC)(CCCC)CCCCOC(=O)[C@H](CC)[C@H]1CC[C@H](C)[C@H]([C@@H](C)[C@H](O)[C@H](C)C(=O)[C@H](CC)[C@H]2O[C@]3(C=C[C@@H](O)[C@]4(CC[C@@](C)([C@H]5CC[C@](O)(CC)[C@H](C)O5)O4)O3)[C@H](C)C[C@@H]2C)O1.[Br-]" next?
2

Field entry: "CC[C@@H](C(=O)[C@@H](C)[C@@H](O)[C@H](C)[C@@H]1O[C@@H]([C@@H](CC)C(=O)OCCCC[P+](c2ccc(C)cc2)(c2ccc(C)cc2)c2ccc(C)cc2)CC[C@@H]1C)[C@H]1O[C@]2(C=C[C@@H](O)[C@]3(CC[C@@](C)([C@H]4CC[C@](O)(CC)[C@H](C)O4)O3)O2)[C@H](C)C[C@@H]1C.[Br-]"
4

* * *

Tested on: Staphylococcus aureus
Assay: Antimicrobial activity against Staphylococcus aureus ATCC 29213 incubated for 18 hrs by twofold microdilution method
Assay type: functional
Consider the following compounds; for each one, report its MIC.
Lab book: enter the figure in µg/mL, no units written.

Can you look up the measured MIC of "CCCC[P+](CCCC)(CCCC)CCCCCCOC(=O)[C@H](CC)[C@H]1CC[C@H](C)[C@H]([C@@H](C)[C@H](O)[C@H](C)C(=O)[C@H](CC)[C@H]2O[C@]3(C=C[C@@H](O)[C@]4(CC[C@@](C)([C@H]5CC[C@](O)(CC)[C@H](C)O5)O4)O3)[C@H](C)C[C@@H]2C)O1.[Br-]" for me?
2

Same question for "CC[C@@H](C(=O)[C@@H](C)[C@@H](O)[C@H](C)[C@@H]1O[C@@H]([C@@H](CC)C(=O)OCc2ccccc2)CC[C@@H]1C)[C@H]1O[C@]2(C=C[C@@H](O)[C@]3(CC[C@@](C)([C@H]4CC[C@](O)(CC)[C@H](C)O4)O3)O2)[C@H](C)C[C@@H]1C" please.
64

Same question for "CC[C@@H](C(=O)[C@@H](C)[C@@H](O)[C@H](C)[C@@H]1O[C@@H]([C@@H](CC)C(=O)OCCCC[P+](c2ccc(C)cc2)(c2ccc(C)cc2)c2ccc(C)cc2)CC[C@@H]1C)[C@H]1O[C@]2(C=C[C@@H](O)[C@]3(CC[C@@](C)([C@H]4CC[C@](O)(CC)[C@H](C)O4)O3)O2)[C@H](C)C[C@@H]1C.[Br-]" please.
4

* * *

So I've got a bunch of molecules here, and I need their MIC values.
Tested on: Staphylococcus aureus
Assay: Antimicrobial activity against Staphylococcus aureus ATCC 6538 incubated for 18 hrs by twofold microdilution method
Format: functional
Write the answer as a number in mg/L, unit excluded.

Query for Staphylococcus aureus: what MIC does the record show for "CC[C@@H](C(=O)[C@@H](C)[C@@H](O)[C@H](C)[C@@H]1O[C@@H]([C@@H](CC)C(=O)OCCCC[P+](c2ccccc2)(c2ccccc2)c2ccccc2)CC[C@@H]1C)[C@H]1O[C@]2(C=C[C@@H](O)[C@]3(CC[C@@](C)([C@H]4CC[C@](O)(CC)[C@H](C)O4)O3)O2)[C@H](C)C[C@@H]1C.[Br-]" ?
1

Now the same for "CC[C@@H](C(=O)[C@@H](C)[C@@H](O)[C@H](C)[C@@H]1O[C@@H]([C@@H](CC)C(=O)O)CC[C@@H]1C)[C@H]1O[C@]2(C=C[C@@H](O)[C@]3(CC[C@@](C)([C@H]4CC[C@](O)(CC)[C@H](C)O4)O3)O2)[C@H](C)C[C@@H]1C"
0.5

Subsequent entry: "CC[C@@H](C(=O)[C@@H](C)[C@@H](O)[C@H](C)[C@@H]1O[C@@H]([C@@H](CC)C(=O)OCCCCCC[P+](c2ccccc2)(c2ccccc2)c2ccc(N(C)C)cc2)CC[C@@H]1C)[C@H]1O[C@]2(C=C[C@@H](O)[C@]3(CC[C@@](C)([C@H]4CC[C@](O)(CC)[C@H](C)O4)O3)O2)[C@H](C)C[C@@H]1C.[Br-]"
8

* * *

Task for the reader: assign each of the following compounds its reported selectivity ratio.
Experiment: Selectivity index, ratio of IC50 for cytotoxicity against human HaCaT cells to IC50 for cytotoxicity against human SW620 cells
Assay type: toxicity, cell-based
Details: HaCaT cells versus SW620 cells, read-out: Ratio IC50

GET /values?readout=selectivity ratio&item= "CC[C@@H](C(=O)[C@@H](C)[C@@H](O)[C@H](C)[C@@H]1O[C@@H]([C@@H](CC)C(=O)OCCCC[P+](c2ccc(C)cc2)(c2ccc(C)cc2)c2ccc(C)cc2)CC[C@@H]1C)[C@H]1O[C@]2(C=C[C@@H](O)[C@]3(CC[C@@](C)([C@H]4CC[C@](O)(CC)[C@H](C)O4)O3)O2)[C@H](C)C[C@@H]1C.[Br-]"
2

And then "CC[C@@H](C(=O)[C@@H](C)[C@@H](O)[C@H](C)[C@@H]1O[C@@H]([C@@H](CC)C(=O)OCCCC[P+](c2ccc(OC)cc2)(c2ccc(OC)cc2)c2ccc(OC)cc2)CC[C@@H]1C)[C@H]1O[C@]2(C=C[C@@H](O)[C@]3(CC[C@@](C)([C@H]4CC[C@](O)(CC)[C@H](C)O4)O3)O2)[C@H](C)C[C@@H]1C.[Br-]" , what is it?
0.9

How about "CCCC[P+](CCCC)(CCCC)CCCCCCOC(=O)[C@H](CC)[C@H]1CC[C@H](C)[C@H]([C@@H](C)[C@H](O)[C@H](C)C(=O)[C@H](CC)[C@H]2O[C@]3(C=C[C@@H](O)[C@]4(CC[C@@](C)([C@H]5CC[C@](O)(CC)[C@H](C)O5)O4)O3)[C@H](C)C[C@@H]2C)O1.[Br-]" ?
0.9
